# Test system: CEM cells HIV-1 protection, formazan growth assay
# assay-comment: NCI AIDS Antiviral Assay
# conditions-used: measured here: growth of uninfected CEM cells
Each item that follows carries a reported log10(IC50).
attribute-measured: log10(IC50) (log10 of the value in µM)

[
  {
    "compound": "CCC[C@H]1[C@H](CCC)[C@@]2(OC(=O)C3=C2CCC=C3)[C@]12OC(=O)C1=C2CCC=C1",
    "log10(IC50)": 1.30
  },
  {
    "compound": "CC(=O)Nc1ccc(-c2nnc(SCC(=O)Nc3ccccc3C)o2)cc1",
    "log10(IC50)": 1.79
  },
  {
    "compound": "Nc1ncnc2c1nnn2C1C=CC(COS(N)(=O)=O)C1 (centres undefined)",
    "log10(IC50)": 1.64
  },
  {
    "compound": "CCN(CC)CCNc1ccc2ncn3c4c(OC)ccc(OC)c4c(=O)c1c23",
    "log10(IC50)": 0.09
  },
  {
    "compound": "C[N+](C)(CCNC(=O)c1cccc2cc3ccccc3nc12)Cc1ccc([N+](=O)[O-])cc1",
    "log10(IC50)": 1.99
  },
  {
    "compound": "CO/S(=N/S(=O)(=O)c1ccccc1)c1ccccc1[N+](=O)[O-] (centres undefined)",
    "log10(IC50)": 2.01
  },
  {
    "compound": "Cc1cc2c(cc1C)[n+](=O)c(C(=O)C/C(=N/NC(=O)c1ccccc1O)C(=O)Nc1ccccc1C(C)C)c(C)n2[O-]",
    "log10(IC50)": 1.88
  },
  {
    "compound": "Cc1cc(Nc2ccc(N=Nc3ccc(O)c4ncccc34)cc2)nc(C)n1",
    "log10(IC50)": 0.81
  }
]

====

# System: CEM cells HIV-1 protection, formazan growth assay
# assay-comment: NCI AIDS Antiviral Assay;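 active = compounds giving half or more protection of infected cells from virus-caused growth loss, again on retest; inactive = the rest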
Outcome codes: class 1 (active), class 0 (inactive)

[
  {
    "compound": "O=C(O)C1=C(C(=O)O)C2c3ccccc3C1c1ccccc12",
    "system-tested": "CEM cells HIV-1 protection, formazan growth assay",
    "answer-label": "class 0"
  },
  {
    "compound": "O=C(Nc1ccc2c(O)c(N=Nc3ccc4c(O)cc(S(=O)(=O)O)cc4c3)c(S(=O)(=O)O)cc2c1)c1ccccc1",
    "system-tested": "CEM cells HIV-1 protection, formazan growth assay",
    "answer-label": "class 1"
  },
  {
    "compound": "CC(C)C[P+](c1ccccc1)(c1ccccc1)c1ccccc1",
    "system-tested": "CEM cells HIV-1 protection, formazan growth assay",
    "answer-label": "class 0"
  },
  {
    "compound": "OCCSCC/C(=N\\N=C(/CCSCCO)c1ccccc1)c1ccccc1",
    "system-tested": "CEM cells HIV-1 protection, formazan growth assay",
    "answer-label": "class 0"
  },
  {
    "compound": "CC1=Cc2cccc(C)c2C(=O)C1=O",
    "system-tested": "CEM cells HIV-1 protection, formazan growth assay",
    "answer-label": "class 0"
  },
  {
    "compound": "COc1cc(CNc2cnc3cc(N)ccc3n2)cc(OC)c1OC",
    "system-tested": "CEM cells HIV-1 protection, formazan growth assay",
    "answer-label": "class 0"
  },
  {
    "compound": "CCCN(CCCCC(NC(C)=O)C(=O)NCc1ccccc1)C(=O)NC (stereo not given)",
    "system-tested": "CEM cells HIV-1 protection, formazan growth assay",
    "answer-label": "class 0"
  },
  {
    "compound": "Cc1cc(C)nc(NS(=O)(=O)c2ccc(NC(=O)c3cccc4c(Nc5ccc(S(=O)(=O)N=C(N)N)cc5)c5ccc(Cl)cc5nc34)cc2)n1",
    "system-tested": "CEM cells HIV-1 protection, formazan growth assay",
    "answer-label": "class 0"
  },
  {
    "compound": "O=C1OC(=O)c2c1ccc1ccccc21",
    "system-tested": "CEM cells HIV-1 protection, formazan growth assay",
    "answer-label": "class 0"
  },
  {
    "compound": "Cc1ccc(C(=O)O)c(O)c1",
    "system-tested": "CEM cells HIV-1 protection, formazan growth assay",
    "answer-label": "class 0"
  },
  {
    "compound": "FC(F)(F)c1ccc(C2=N/S(c3ccccc3)=N\\C(c3ccc(C(F)(F)F)cc3)=N/S(c3ccccc3)=N\\2)cc1 (stereo not given)",
    "system-tested": "CEM cells HIV-1 protection, formazan growth assay",
    "answer-label": "class 0"
  },
  {
    "compound": "C=C(Br)CNC(=O)NCCN1CCOCC1",
    "system-tested": "CEM cells HIV-1 protection, formazan growth assay",
    "answer-label": "class 0"
  },
  {
    "compound": "N#C/C(=C\\c1ccc(O)c(O)c1)C(=O)NC1CCC(CC2CCC(NC(=O)/C(C#N)=C/c3ccc(O)c(O)c3)CC2)CC1 (stereo not given)",
    "system-tested": "CEM cells HIV-1 protection, formazan growth assay",
    "answer-label": "class 0"
  },
  {
    "compound": "CCCCN(CCCC)CC(C(C)=O)C(c1ccccc1)c1c(O)c2ccccc2oc1=O (stereo not given)",
    "system-tested": "CEM cells HIV-1 protection, formazan growth assay",
    "answer-label": "class 0"
  },
  {
    "compound": "Cc1cnoc1/N=C1\\C=C(Nc2oncc2C)C(=O)c2ccccc21",
    "system-tested": "CEM cells HIV-1 protection, formazan growth assay",
    "answer-label": "class 0"
  },
  {
    "compound": "COc1cc(CC2COC(=O)[C@@H]2Cc2ccc(O)c(OC)c2)ccc1O (stereo not given in full)",
    "system-tested": "CEM cells HIV-1 protection, formazan growth assay",
    "answer-label": "class 0"
  },
  {
    "compound": "COc1ccc(C=C2C(=O)NC(=O)NC2=O)cc1OCc1ccccc1",
    "system-tested": "CEM cells HIV-1 protection, formazan growth assay",
    "answer-label": "class 0"
  },
  {
    "compound": "O=C1c2ccccc2C(=O)c2sc(Nc3cc(Cl)ccc3Cl)nc21",
    "system-tested": "CEM cells HIV-1 protection, formazan growth assay",
    "answer-label": "class 0"
  },
  {
    "compound": "Clc1ccc(-n2nnc(C3=NCCN3)c2-c2ccccc2)cc1",
    "system-tested": "CEM cells HIV-1 protection, formazan growth assay",
    "answer-label": "class 0"
  },
  {
    "compound": "COC(=O)c1ccccc1CC(Cc1ccc2c(c1)CCC2)C(=O)OC (stereo not given)",
    "system-tested": "CEM cells HIV-1 protection, formazan growth assay",
    "answer-label": "class 0"
  },
  {
    "compound": "CCn1c(SCC(=O)NNC(=S)Nc2ccc(F)cc2)nc2ccccc2c1=O",
    "system-tested": "CEM cells HIV-1 protection, formazan growth assay",
    "answer-label": "class 0"
  },
  {
    "compound": "O=c1c(NO)c([N+](=O)[O-])cnn1-c1ccccc1",
    "system-tested": "CEM cells HIV-1 protection, formazan growth assay",
    "answer-label": "class 0"
  },
  {
    "compound": "Cc1ccc(Nc2nc(NNC(=O)Cc3ccccc3)nc(NNC(=O)c3ccncc3)n2)cc1",
    "system-tested": "CEM cells HIV-1 protection, formazan growth assay",
    "answer-label": "class 0"
  },
  {
    "compound": "COC(=O)c1cc(C(=CCCN=[N+]=[N-])c2cc(Cl)c(OC)c(C(=O)OC)c2)cc(Cl)c1OC",
    "system-tested": "CEM cells HIV-1 protection, formazan growth assay",
    "answer-label": "class 1"
  }
]
